Reported Uric acid after the 1st time injection values are given for each entry in this list.
- System: male ICR mice
- test: Nephrotoxicity test, serologic analysis (BUN, creatinine, uric acid) after i.p. injection
- Format: in vivo
- Design: unit not given here
- condition_set: serum, 3 day after single i.p. injection; dose 8x IC50 (cisplatin 7x IC50); average ± SD of 5-6 ICR mice
- Protocol: In order to serologically analyze nephrotoxicity of various Pt complexes, after injecting each agent intraperitneally, blood was exsanguinated after 6 hours, 1 day, 3 days and 7 days, respectively. Then, serum was seperated f rom the blood to detect the values of BUN (Blood urea nitrogen), creatinine and uric acid.^133) As an experimental animal, male ICR mice each weighing about 25 g were purchased from Korean Experimental Animal Center. […]

{"molecule": "CC(=O)[O][Pt]1([Cl])([Cl])([O]C(C)=O)[NH]CCCC[NH]1 [7(Ac)Cl]", "Uric acid after the 1st time injection": 1.88}
{"molecule": "O=C([O][Pt]1([Cl])([Cl])([O]C(=O)C(F)(F)F)[NH]CCCC[NH]1)C(F)(F)F [7(TF)Cl]", "Uric acid after the 1st time injection": 2.22}
{"molecule": "CC(=O)[O][Pt]12([O]C(C)=O)([NH]CCCC[NH]1)[O]C(=O)CC(=O)[O]2 [7(Ac)M]", "Uric acid after the 1st time injection": 2.0}
{"molecule": "O=C1CC(=O)[O][Pt]2([O]C(=O)C(F)(F)F)([O]C(=O)C(F)(F)F)([NH]CCCC[NH]2)[O]1 [7(TF)M]", "Uric acid after the 1st time injection": 1.82}

====

Reported Uric acid after the 1st time injection values are given for each entry in this list.
- System: male ICR mice
- test: Nephrotoxicity test, serologic analysis (BUN, creatinine, uric acid) after i.p. injection
- Assay type: in vivo
- Set-up: unit not given here
- condition_set: serum, 1 Day after single i.p. injection; dose 8x IC50 (cisplatin 7x IC50); average ± SD of 5-6 ICR mice
experimental_readout: Uric acid after the 1st time injection

{"compound_string": "CC(=O)[O][Pt]12([O]C(C)=O)([NH]CCCC[NH]1)[O]C(=O)CC(=O)[O]2", "value_measured": 2.34}
{"compound_string": "CC(=O)[O][Pt]1([Cl])([Cl])([O]C(C)=O)[NH]CCCC[NH]1", "value_measured": 1.92}
{"compound_string": "O=C([O][Pt]1([Cl])([Cl])([O]C(=O)C(F)(F)F)[NH]CCCC[NH]1)C(F)(F)F", "value_measured": 1.82}
{"compound_string": "O=C1CC(=O)[O][Pt]2([O]C(=O)C(F)(F)F)([O]C(=O)C(F)(F)F)([NH]CCCC[NH]2)[O]1", "value_measured": 1.8}

====

Reported Uric acid after the 1st time injection values are given for each entry in this list.
- Test system: male ICR mice
- test: Nephrotoxicity test, serologic analysis (BUN, creatinine, uric acid) after i.p. injection
- Type: in vivo
- Parameters: unit not given here
- condition_set: serum, 6 hour after single i.p. injection; dose 8x IC50 (cisplatin 7x IC50); average ± SD of 5-6 ICR mice
experimental_readout: Uric acid after the 1st time injection

{"compound_string": "CC(=O)[O][Pt]12([O]C(C)=O)([NH]CCCC[NH]1)[O]C(=O)CC(=O)[O]2", "value_measured": "2.66 ± 0.7"}
{"compound_string": "O=C([O][Pt]1([Cl])([Cl])([O]C(=O)C(F)(F)F)[NH]CCCC[NH]1)C(F)(F)F", "value_measured": "2.2 ± 0.9"}
{"compound_string": "O=C1CC(=O)[O][Pt]2([O]C(=O)C(F)(F)F)([O]C(=O)C(F)(F)F)([NH]CCCC[NH]2)[O]1", "value_measured": "2.04 ± 0.3"}
{"compound_string": "CC(=O)[O][Pt]1([Cl])([Cl])([O]C(C)=O)[NH]CCCC[NH]1", "value_measured": "2.18 ± 1.0"}

====

- Test system: male ICR mice
- test: Nephrotoxicity test, serologic analysis (BUN, creatinine, uric acid) after i.p. injection
- Format: in vivo
- Set-up: unit not given here
- condition_set: serum, 1 Day after single i.p. injection; dose 8x IC50 (cisplatin 7x IC50); average ± SD of 5-6 ICR mice
experimental_readout: BUN after the 1st time injection

{"compound_string": "CC(=O)[O][Pt]1([Cl])([Cl])([O]C(C)=O)[NH]CCCC[NH]1", "experimental_readout": "BUN after the 1st time injection", "value_measured": "19.4 ± 3.3"}
{"compound_string": "CC(=O)[O][Pt]12([O]C(C)=O)([NH]CCCC[NH]1)[O]C(=O)CC(=O)[O]2", "experimental_readout": "BUN after the 1st time injection", "value_measured": "22.0 ± 4.1"}
{"compound_string": "O=C([O][Pt]1([Cl])([Cl])([O]C(=O)C(F)(F)F)[NH]CCCC[NH]1)C(F)(F)F", "experimental_readout": "BUN after the 1st time injection", "value_measured": "23.1 ± 3.3"}
{"compound_string": "O=C1CC(=O)[O][Pt]2([O]C(=O)C(F)(F)F)([O]C(=O)C(F)(F)F)([NH]CCCC[NH]2)[O]1", "experimental_readout": "BUN after the 1st time injection", "value_measured": "23.1 ± 4.8"}

====

- Tested on: male ICR mice
- test: Nephrotoxicity test, serologic analysis (BUN, creatinine, uric acid) after i.p. injection
- Type: in vivo
- Parameters: unit not given here
- condition_set: serum, 7 Day after single i.p. injection; dose 8x IC50 (cisplatin 7x IC50); average ± SD of 5-6 ICR mice
- Experimental: In order to serologically analyze nephrotoxicity of various Pt complexes, after injecting each agent intraperitneally, blood was exsanguinated after 6 hours, 1 day, 3 days and 7 days, respectively. Then, serum was seperated f rom the blood to detect the values of BUN (Blood urea nitrogen), creatinine and uric acid.^133) As an experimental animal, male ICR mice each weighing about 25 g were purchased from Korean Experimental Animal Center. […]
experimental_readout: Uric acid after the 1st time injection

{"compound": "CC(=O)[O][Pt]12([O]C(C)=O)([NH]CCCC[NH]1)[O]C(=O)CC(=O)[O]2 [7(Ac)M]", "experimental_readout": "Uric acid after the 1st time injection", "value_measured": 1.52}
{"compound": "CC(=O)[O][Pt]1([Cl])([Cl])([O]C(C)=O)[NH]CCCC[NH]1 [7(Ac)Cl]", "experimental_readout": "Uric acid after the 1st time injection", "value_measured": 1.74}
{"compound": "O=C1CC(=O)[O][Pt]2([O]C(=O)C(F)(F)F)([O]C(=O)C(F)(F)F)([NH]CCCC[NH]2)[O]1 [7(TF)M]", "experimental_readout": "Uric acid after the 1st time injection", "value_measured": 1.96}
{"compound": "O=C([O][Pt]1([Cl])([Cl])([O]C(=O)C(F)(F)F)[NH]CCCC[NH]1)C(F)(F)F [7(TF)Cl]", "experimental_readout": "Uric acid after the 1st time injection", "value_measured": 1.88}

====

Reported BUN after the 1st time injection values are given for each entry in this list.
- Test system: male ICR mice
- test: Nephrotoxicity test, serologic analysis (BUN, creatinine, uric acid) after i.p. injection
- Format: in vivo
- Set-up: unit not given here
- condition_set: serum, 7 Day after single i.p. injection; dose 8x IC50 (cisplatin 7x IC50); average ± SD of 5-6 ICR mice
- Method: In order to serologically analyze nephrotoxicity of various Pt complexes, after injecting each agent intraperitneally, blood was exsanguinated after 6 hours, 1 day, 3 days and 7 days, respectively. Then, serum was seperated f rom the blood to detect the values of BUN (Blood urea nitrogen), creatinine and uric acid.^133) As an experimental animal, male ICR mice each weighing about 25 g were purchased from Korean Experimental Animal Center. […]

{"compound_string": "CC(=O)[O][Pt]12([O]C(C)=O)([NH]CCCC[NH]1)[O]C(=O)CC(=O)[O]2", "assayed_target": "male ICR mice", "BUN after the 1st time injection": 21.5}
{"compound_string": "CC(=O)[O][Pt]1([Cl])([Cl])([O]C(C)=O)[NH]CCCC[NH]1", "assayed_target": "male ICR mice", "BUN after the 1st time injection": 22.1}
{"compound_string": "O=C1CC(=O)[O][Pt]2([O]C(=O)C(F)(F)F)([O]C(=O)C(F)(F)F)([NH]CCCC[NH]2)[O]1", "assayed_target": "male ICR mice", "BUN after the 1st time injection": 22.3}
{"compound_string": "O=C([O][Pt]1([Cl])([Cl])([O]C(=O)C(F)(F)F)[NH]CCCC[NH]1)C(F)(F)F", "assayed_target": "male ICR mice", "BUN after the 1st time injection": 20.7}

====

Reported BUN after the 1st time injection values are given for each entry in this list.
- Tested on: male ICR mice
- test: Nephrotoxicity test, serologic analysis (BUN, creatinine, uric acid) after i.p. injection
- Type: in vivo
- Design: unit not given here
- condition_set: serum, 3 day after single i.p. injection; dose 8x IC50 (cisplatin 7x IC50); average ± SD of 5-6 ICR mice
experimental_readout: BUN after the 1st time injection

{"compound": "O=C([O][Pt]1([Cl])([Cl])([O]C(=O)C(F)(F)F)[NH]CCCC[NH]1)C(F)(F)F [7(TF)Cl]", "experimental_readout": "BUN after the 1st time injection", "value_measured": "18.1 ± 2.3"}
{"compound": "CC(=O)[O][Pt]12([O]C(C)=O)([NH]CCCC[NH]1)[O]C(=O)CC(=O)[O]2 [7(Ac)M]", "experimental_readout": "BUN after the 1st time injection", "value_measured": "22.4 ± 3.3"}
{"compound": "CC(=O)[O][Pt]1([Cl])([Cl])([O]C(C)=O)[NH]CCCC[NH]1 [7(Ac)Cl]", "experimental_readout": "BUN after the 1st time injection", "value_measured": "19.2 ± 2.8"}
{"compound": "O=C1CC(=O)[O][Pt]2([O]C(=O)C(F)(F)F)([O]C(=O)C(F)(F)F)([NH]CCCC[NH]2)[O]1 [7(TF)M]", "experimental_readout": "BUN after the 1st time injection", "value_measured": "22.9 ± 1.7"}

The measurements presented in this section are drawn from patent US6340770B1.
